System: SNU-C1 (Colorectal Carcinoma)
experimentDescription: Bliss excess, mean over the matrix (fraction); higher = more synergy;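 note: after 72 h of two-drug dosing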
Binary call on Bliss excess: yes from -0.05 upward, no beneath that.

# compound, assignedClass
rows = [
    ("Cc1c2c(nn1C)CSCc1cc(n(C)n1)CSc1cc(c3ccccc3c1)OCCCc1c(C(=O)O)n(C)c3c-2c(Cl)ccc13 [AZD5991] + Nc1ccn([C@@H]2O[C@H](CO)[C@@H](O)C2(F)F)c(=O)n1 [Gemcitabine] (first compound max 1 µM, 7x7, partner max 0.3 µM)", "yes"),
    ("Cc1c2c(nn1C)CSCc1cc(n(C)n1)CSc1cc(c3ccccc3c1)OCCCc1c(C(=O)O)n(C)c3c-2c(Cl)ccc13 [AZD5991] + CC1(C)CCC(CN2CCN(c3ccc(C(=O)NS(=O)(=O)c4ccc(NCC5CCOCC5)c([N+](=O)[O-])c4)c(Oc4cnc5[nH]ccc5c4)c3)CC2)=C(c2ccc(Cl)cc2)C1 [Venetoclax] (first compound max 1 µM, 7x7, partner max 1 µM)", "yes"),
    ("COc1cccc(OCCCN)c1-c1cc(Nc2cnc(C#N)cn2)n[nH]1 [Prexasertib] + CCc1c2c(nc3ccc(O)cc13)-c1cc3c(c(=O)n1C2)COC(=O)[C@]3(O)CC [SN-38] (first compound max 1 µM, 7x7, partner max 0.3 µM)", "yes"),
    ("CN(CCO)CC[C@H](CSc1ccccc1)Nc1ccc(S(=O)(=O)NC(=O)c2ccc(N3CCC([C@@H](O)c4ccccc4-c4ccc(Cl)cc4)CC3)cc2)cc1S(=O)(=O)C(F)(F)F [AZD4320] + C[C@@H](Nc1cc(F)cc(F)c1)c1cc(C(=O)N(C)C)cc2c(=O)cc(N3CCOCC3)oc12 [AZD8186] (first compound max 1 µM, 7x7, partner max 3 µM)", "yes"),
    ("CN(CCO)CC[C@H](CSc1ccccc1)Nc1ccc(S(=O)(=O)NC(=O)c2ccc(N3CCC([C@@H](O)c4ccccc4-c4ccc(Cl)cc4)CC3)cc2)cc1S(=O)(=O)C(F)(F)F [AZD4320] + C[C@@H]1COCCN1C2=NC(=NC(=C2)C3(CC3)[S@](=N)(=O)C)C4=C5C=CNC5=NC=C4 [AZD6738] (first compound max 1 µM, 7x7, partner max 10 µM)", "no"),
]

###

System: HC-1 (Other Blood Carcinomas)
experimentDescription: Bliss excess, mean over the matrix (fraction); higher = more synergy
endpointLabel: Bliss excess

# molecule, measValue
data = [
    ("C[C@@H](c1ccc2nccn2c1)n1nnc2ncc(-c3cnn(C)c3)nc21 [Savolitinib] + CC1(C)CCC(CN2CCN(c3ccc(C(=O)NS(=O)(=O)c4ccc(NCC5CCOCC5)c([N+](=O)[O-])c4)c(Oc4cnc5[nH]ccc5c4)c3)CC2)=C(c2ccc(Cl)cc2)C1 [Venetoclax] (first compound max 1 µM, 7x7, partner max 1 µM)", -0.0824),
    ("COc1nnc2ccc(N3CCC(c4ccc(OCCN5CCN(C)C(=O)[C@H]5C)cc4)CC3)nn12 [AZD5153] + CCN(CCO)CCCOc1ccc2c(Nc3cc(CC(=O)Nc4cccc(F)c4)[nH]n3)ncnc2c1 [AZD2811] (first compound max 1 µM, 7x7, partner max 1 µM)", -0.0099),
    ("CC(=O)Nc1cccc(-n2c(=O)n(C3CC3)c(=O)c3c(Nc4ccc(I)cc4F)n(C)c(=O)c(C)c32)c1 [Trametinib] + Cc1nc(-c2cn3c(n2)-c2ccc(-c4cnn(C(C)(C)C(N)=O)c4)cc2OCC3)n(C(C)C)n1 [Taselisib] (first compound max 1 µM, 7x7, partner max 10 µM)", 0.12),
    ("Cc1cc2ncnn2cc1Nc1ncc2c(n1)n(C1CCOCC1)c(=O)n2C [AZD7648] + CCN(CCO)CCCOc1ccc2c(Nc3cc(CC(=O)Nc4cccc(F)c4)[nH]n3)ncnc2c1 [AZD2811] (first compound max 10 µM, 7x7, partner max 1 µM)", 0.0045),
    ("COc1cccc(OCCCN)c1-c1cc(Nc2cnc(C#N)cn2)n[nH]1 [Prexasertib] + C[C@@H]1COCCN1C2=NC(=NC(=C2)C3(CC3)[S@](=N)(=O)C)C4=C5C=CNC5=NC=C4 [AZD6738] (first compound max 1 µM, 7x7, partner max 10 µM)", -0.0139),
    ("CCN(CCO)CCCOc1ccc2c(Nc3cc(CC(=O)Nc4cccc(F)c4)[nH]n3)ncnc2c1 [AZD2811] + C[C@@H]1COCCN1C2=NC(=NC(=C2)C3(CC3)[S@](=N)(=O)C)C4=C5C=CNC5=NC=C4 [AZD6738] (first compound max 1 µM, 7x7, partner max 10 µM)", -0.007),
]
